Origin of values: patent US20230338391A1

experiment summary: Phase 1 SRD/multiple-rising dose (MRD, Part 2) plasma PK in healthy subjects
Format: in vivo, human
measurement parameters: both sexes, human, plasma, oral, 6 mg, 6 mg QD, Study Day 18; mean, n = 5; read-out: AUCτ
observable: AUC (ng·h/mL)
// units = ng·h/mL; emit number, no label

AUC for CC1=CN2CCS(=O)(=O)N=C2C(c2ccc(OC3CCCCC3)cc2)=N1 [COMPOUND A] is 2930

###

experiment summary: Phase 1 SRD/multiple-rising dose (MRD, Part 2) plasma PK in healthy subjects
Type: in vivo, human
measurement parameters: both sexes, human, plasma, oral, 3 mg, 3 mg QD, Study Day 6; mean; read-out: AUC24
observable: AUC (ng·h/mL)
// units = ng·h/mL; emit number, no label

AUC for `CC1=CN2CCS(=O)(=O)N=C2C(c2ccc(OC3CCCCC3)cc2)=N1` is 594
